Target of assay: Neurogenic locus notch homolog protein 2 (Homo sapiens)
Procedure text: Notch2 binders on small-molecule microarrays, primary screen, biochemical, small-molecule microarray, 635 nm fluorescence, stem cell growth factors (AID 1073)
Cond: Notch2 binding, higher = more signal
Readout kind: composite z-score
Just the number, please.

Input: Field request: composite z-score | item: O=C1O[C@H](c2ccccc2)[C@H](c2ccccc2)N2[C@H]1[C@@H](C(=O)NC[C@H](O)c1ccccc1)[C@]1(C(=O)Nc3ccc(C#CCCO)cc31)[C@H]2c1ccc(O)cc1
Output: -0.42

Input: Given the entry CCN(CC)c1ccc(N2CC=CC34O[C@@H]5/C=C\CCCOC(=O)C5[C@H]3C(=O)N(C(CO)C(C)C)[C@@H]4C2=O)cc1 (stereo partly drawn) , report its measured composite z-score.
Output: -0.686

Input: Record request: composite z-score value, item CC(C)NC(=O)[C@@H]1c2ccccc2C(=O)N(Cc2ccccc2)[C@H]1c1ccc(CO)cc1
Output: -1.1

Input: Need composite z-score of C=CCN1C(=O)[C@]2(O[C@H](CCO)[C@@H]([Si](C)(C)c3ccc(OC)cc3)[C@@H]2C)c2cc(NC(=O)[C@H](C)O)ccc21 , thanks.
Output: 0.327

Input: Find the recorded composite z-score belonging to O=c1cccc(CCc2ccccc2)o1 and report it.
Output: -0.321

Input: What does the data say about its composite z-score? Entry: C=CC[C@@H](OC(=O)Nc1ccc(OC)cc1)c1ccc(O)c2ccccc12
Output: 0.746

Input: Requested read-out: composite z-score. Entry: COc1ccc(CCNC(=O)[C@@]2(c3ccc([N+](=O)[O-])cc3)CC(=O)N(CC34CC5CC(CC(C5)C3)C4)[C@@H]2c2ccc(CO)cc2)cc1
Output: 1.14

Input: // query composite z-score value for entry CC(C)Cc1ccc(CN2CC[C@@H](NS(=O)(=O)c3ccccc3)C2)cc1
Output: -1.43

====

Test system: PRMT1 (protein arginine N-methyltransferase 1)
Procedure text: PRMT1 binders on small-molecule microarrays, primary screen, biochemical, small-molecule microarray, 635 nm fluorescence (AID 1088);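 also: binding of Prmt1 protein to compounds spotted on small-molecule microarray slides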
Cond: small-molecule microarray binding, higher = more signal
Reported composite z-score values for a set of compounds
Write no unit; give the number alone.

Below: 2 compounds and their reported composite z-score.
Compound: CN(C)CCCNC(=O)[C@@]1(Cc2ccccc2I)c2ccccc2C(=O)N(Cc2ccccc2C(F)(F)F)[C@H]1c1ccc(CO)cc1
composite z-score: 1.05
//
Compound: COc1cc(C(O)C2C=CC3C(=O)N(c4ccccc4)C(=O)C3N2Nc2ccc(C#N)cc2)cc(OC)c1OC (configuration not stated)
composite z-score: 1.54

Input: # returns recorded composite z-score (system: PRMT1 (protein arginine N-methyltransferase 1)) for [N-]=[N+]=Nc1ccccc1[C@H]1OC(c2ccc(OCCCO)cc2)=N[C@@]1(CCS(=O)(=O)c1ccccc1)C(=O)O
Output: 0.164

Input: So what composite z-score did COc1ccc([Si](C)(C)[C@@H]2[C@@H](CC(=O)N(CCO)Cc3ccccc3)O[C@]3(C(=O)N(C)c4ccccc43)[C@H]2C)cc1 get with PRMT1 (protein arginine N-methyltransferase 1)?
Output: 1.54

====

Procedure text: small-molecule microarray binders of probe aNog, primary screen, biochemical, biotinylated probe, 635/667 nm fluorescence (AID 1115);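 also: probe is biotinylated aNog protein used at 0.15 µg/mL for 1 h at 4 C; z-score combines 667 nm fluorescence of each spot with its signal to noise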
Cond: higher = more signal
composite z-score listing for selected compounds.

Compound: COc1ccc(CCNC(=O)[C@@]2(c3ccc([N+](=O)[O-])cc3)CC(=O)N(CC34CC5CC(CC(C5)C3)C4)[C@@H]2c2ccc(CO)cc2)cc1
composite z-score: -0.0281
//
Compound: O=C1C2C=CC(C(O)c3cccs3)N(Nc3ccccc3F)C2C(=O)N1c1ccccc1 (stereo unspecified)
composite z-score: -0.126
//
Compound: C=CC[C@@]1(C(=O)NCC(O)CO)N=C(c2ccc(OCCCO)cc2)O[C@@H]1c1ccccc1N=[N+]=[N-] (stereo partly specified)
composite z-score: 1.39
//
Compound: COc1cccc(C(=O)O[C@H]2CC[C@]3(C)C4=C(CCC3C2(C)C)[C@]2(C)CC[C@H]([C@H](C)CCCC(C)C)[C@@]2(C)CC4)c1 (stereo partly specified)
composite z-score: -0.0689
//
Compound: C=CCNC(=O)[C@@H]1[C@H]2C(=O)O[C@H](c3ccccc3)[C@H](c3ccccc3)N2[C@H](c2ccc(O)cc2)[C@@]12C(=O)N(C(=O)OCCOC)c1ccccc12
composite z-score: 0.215
//
Compound: CCN(CC)c1ccc(N2CC=CC34O[C@@H]5C=CCCOC(=O)C5[C@H]3C(=O)N(CCCCCO)[C@@H]4C2=O)cc1 (stereo partly specified)
composite z-score: -0.025
//
Compound: COC(=O)c1ccc(C23CC2(C(NP(=O)(c2ccccc2)c2ccccc2)c2ccccc2)C3)cc1 (stereo unspecified)
composite z-score: -0.708
//
Compound: CCC[C@@H]1C=C(C(=O)O)[C@H](c2ccc(C)cc2)N1S(=O)(=O)c1ccc(C)cc1
composite z-score: 0.582

Input: Item COc1ccc([Si](C)(C)[C@@H]2[C@@H](CCn3cc([C@H](O)c4ccccc4)nn3)O[C@]3(C(=O)N(Cc4cccc(N5CCOC5=O)c4)c4ccccc43)[C@H]2C)cc1 has what recorded composite z-score?
Output: -0.256

Input: Look at this compound and give its reported composite z-score. COC(=O)c1ccc(C(O)C2C=CC3C(=O)N(C)C(=O)C3N2NC(=O)OC(C)(C)C)o1 (stereo unspecified)
Output: 0.672

Input: Any idea what its composite z-score is? The compound is N#Cc1ccc(NN2C(C(O)C3CCCCC3)C=CC3C(=O)N(c4ccccc4)C(=O)C32)cc1 (stereo unspecified)
Output: 1.32

Input: Quick one: composite z-score of CC(C)NC(=O)[C@@H]1c2ccccc2C(=O)N(Cc2ccccc2)[C@H]1c1ccc(CO)cc1 ?
Output: -0.647

Input: Consider the compound shown here: O=C1C[C@@](C(=O)NC2CC2)(c2ccc([N+](=O)[O-])cc2)[C@@H](c2ccc(CO)cc2)N1CC12CC3CC(CC(C3)C1)C2 What is its recorded composite z-score?
Output: 0.11

Input: Look up composite z-score: O=C1C2C=CC(C(O)c3ccc(-c4ccccc4)s3)N(n3cnnc3)C2C(=O)N1Cc1ccccc1 (stereo unspecified)
Output: 0.141

Input: Consider the compound shown here: CC(=O)C1=CCC(c2ccccc2)N(S(=O)(=O)c2ccc(C)cc2)C1 (stereo unspecified) What is its recorded composite z-score?
Output: 0.471

Input: Given the entry CCOC(=O)C1=CC[C@@H](c2ccccc2)N(S(=O)(=O)c2ccc(C)cc2)[C@H]1C(=O)OCC , report its measured composite z-score.
Output: 0.137

====

Procedure text: small-molecule binders of probe aLefty1, primary screen, biochemical, small-molecule microarray, 635/667 nm fluorescence (AID 1153);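 also: score merges spot fluorescence with signal-to-noise ratio from the scanned slide images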
Cond: higher = more signal
The following compounds are listed with their measured composite z-score values.
Form rule: numeric answer, no unit written next to it.

Guide cases for composite z-score, answers given:
Compound: COC(=O)c1ccc(C(O)C2C=CC3C(=O)N(C)C(=O)C3N2NC(=O)OC(C)(C)C)o1 (stereo not drawn)
composite z-score: 0.0622
--
Compound: O=c1cccc(C=Cc2ccccc2)o1
composite z-score: -0.29
--
Compound: O=C1OCCC/C=C\[C@H]2OC34C=CCN(Cn5nnc6ccccc65)C(=O)[C@H]3N(CCCCCO)C(=O)[C@@H]4C12 (stereo partly drawn)
composite z-score: 0.278
--
Compound: CO[C@H]1O[C@H](CO)[C@@H](OC(=O)Nc2ccc3c(c2)OCO3)[C@H](OC(=O)Nc2ccccc2)[C@H]1OC(=O)Nc1ccccc1
composite z-score: 0.227
--
Compound: CCOC(=O)C1=C[C@@H](CC)N(S(=O)(=O)c2ccc(C)cc2)[C@H]1c1ccccc1
composite z-score: 0.271

Input: Query (compound): COCCOC(=O)N1C(=O)[C@@]2(c3cc(C#CCC(C(=O)OC)C(=O)OC)ccc31)[C@H](C(=O)N1CCN(c3ncccn3)CC1)[C@H]1C(=O)O[C@H](c3ccccc3)[C@H](c3ccccc3)N1[C@@H]2c1ccc(OCCO)cc1 ; field requested: composite z-score
Output: -0.0511

Input: Give its composite z-score value. Item: COc1ccc(C(O)C2C=CC3C(=O)N(C)C(=O)C3N2Nc2ccccc2)cc1OCc1ccccc1 (stereo not drawn)
Output: 0.0451

Input: If you can, please state the reported composite z-score value of CN(C)C(=O)[C@@]1(CCC(=O)OC(C)(C)C)N=C(c2ccc(OCCCO)cc2)O[C@H]1c1ccccc1 .
Output: 0.986

====

Target of assay: NADPH oxidase 5 (Homo sapiens)
Procedure text: NOX5-dependent H2O2 signal modulators, primary screen, NOX inhibitor project, cell-based, HEK293-NOX5, Amplex Red fluorescence (AID 1161)
Cond: HEK293-NOX5, ionomycin, 45 min, higher = more signal
z-score for assorted compounds
Please give the numeric answer without any surrounding text.

Here is how some compounds turned out for z-score.
Compound: COc1ccc(CCNC(=O)[C@@]2(Sc3ccc(C)cc3)CC(=O)N(Cc3ccccc3Cl)[C@@H]2c2ccc(CO)cc2I)cc1
z-score: 1.32
//
Compound: COC(=O)[C@@]1(Cc2ccccc2)[C@H]2c3cc(C(=O)N4CCCC4)n(Cc4ccc(C)o4)c3C[C@H]2CN1C(=O)c1ccccc1
z-score: -1.17

Input: What does the data say about its z-score? Entry: C=CCN1C(=O)[C@]2(O[C@H](CCO)[C@@H]([Si](C)(C)c3ccc(OC)cc3)[C@@H]2C)c2cc(NC(=O)[C@H](C)O)ccc21
Output: 0.375

Input: z-score for COc1cc(C(O)C2C=CC3C(=O)N(c4ccccc4)C(=O)C3N2Nc2ccc(C#N)cc2)cc(OC)c1OC (centres undefined) ?
Output: -5.34

Input: Fill in: z-score of NC(=O)NCC#Cc1ccc2c(c1)[C@]1(C(=O)N2)[C@H](C(=O)NC[C@H](O)c2ccccc2)[C@H]2C(=O)O[C@H](c3ccccc3)[C@H](c3ccccc3)N2[C@@H]1c1ccc(O)cc1 is ___
Output: 0.404
